Biological target: rat orexin 1 receptor (Rattus norvegicus)
Test: Rat orexin 1 receptor radioligand binding (competitive, [3H]-SB674042, HEK293 cell preparations)
Settings: rOX1 Ki (nm)
Measured Attribute: log10 of Ki (log10 of the value in nM)
Values below are the log10 of the recorded Ki, with nM as the unit.

[Q] What log10 of Ki value was documented for this compound, Cc1ccc(-n2nccn2)c(C(=O)N2C3CCC2C(Nc2ncc(C(F)(F)F)cn2)C3)n1 (racemic) [Example 223] ?
[A] 2.74

[Q] Again, but for Cc1ccc(NC2CC3CCC2N3C(=O)c2ccccc2-n2nccn2)nc1 (racemic)
[A] 2.70

[Q] Again, but for Cc1ccc(-n2nccn2)c(C(=O)N2C3CCC2C(Nc2cnc4ccccc4n2)C3)n1 (racemic) [Example 205]
[A] 1.90

[Q] Again, but for Cc1ccc(-n2nccn2)c(C(=O)N2C3CCC2C(COc2ccc(C(F)(F)F)cn2)C3)n1 (racemic)
[A] 2.66

[Q] Again, but for Cc1cccc(C(=O)N2C3CCC2C(COc2ccc(F)cn2)C3)c1-n1nccn1 (racemic)
[A] 1.67

[Q] Again, but for CCOc1nccc(C)c1C(=O)N1C2CCC1C(COc1ccccn1)C2 (racemic)
[A] 3.20

[Q] Again, but for Cc1ccc(-c2ncccn2)c(C(=O)N2C3CCC2C(COc2ncc(F)cn2)C3)n1 (racemic)
[A] 3.40

[Q] Again, but for O=C(c1ncccc1-n1nccn1)N1C2CCC1C(COc1ccccn1)C2 (racemic)
[A] 2.80

[Q] Again, but for COc1c(F)cccc1C(=O)N1C2CCC1C(Nc1ccc(Br)cn1)C2 (racemic)
[A] 3.43

[Q] Again, but for COc1ccc(C(=O)N2C3CCC2C(Nc2ccc(C(F)(F)F)cn2)C3)c(-n2nccn2)c1 (racemic)
[A] 2.41

[Q] Again, but for COc1c(F)cccc1C(=O)N1C2CCC1C(Nc1ncc(C(F)(F)F)cn1)C2 (racemic) [Example 222]
[A] 3.68

###

Target: rat orexin 1 receptor (Rattus norvegicus)
Experiment: Rat orexin 1 receptor radioligand binding (competitive, [3H]-SB674042, HEK293 cell preparations)
Settings: read-out: rOX1 Ki (nm)
Measured Attribute: pKi
The quantity pKi is defined as the negative base-10 logarithm of the molar concentration.

[Q] Hello, I am looking for reported pKi with rat orexin 1 receptor (Rattus norvegicus) for COc1ccc(-n2nccn2)c(C(=O)N2[C@@H]3CC[C@H]2[C@H](Nc2cnc(C(F)(F)F)cn2)C3)c1 . Could you help?
[A] 7.49

[Q] Again, but for CCOc1ncc2ccccc2c1C(=O)N1[C@@H]2CC[C@H]1[C@H](COc1ccccn1)C2
[A] 8.05

[Q] Again, but for O=C(c1cccc(F)c1-n1nccn1)N1[C@@H]2CC[C@H]1[C@H](Nc1ncc(C(F)(F)F)cn1)C2
[A] 7.32

###

Target: human orexin 2 receptor (Homo sapiens (Human), UniProt O43614)
Sequence (O43614 whole entry): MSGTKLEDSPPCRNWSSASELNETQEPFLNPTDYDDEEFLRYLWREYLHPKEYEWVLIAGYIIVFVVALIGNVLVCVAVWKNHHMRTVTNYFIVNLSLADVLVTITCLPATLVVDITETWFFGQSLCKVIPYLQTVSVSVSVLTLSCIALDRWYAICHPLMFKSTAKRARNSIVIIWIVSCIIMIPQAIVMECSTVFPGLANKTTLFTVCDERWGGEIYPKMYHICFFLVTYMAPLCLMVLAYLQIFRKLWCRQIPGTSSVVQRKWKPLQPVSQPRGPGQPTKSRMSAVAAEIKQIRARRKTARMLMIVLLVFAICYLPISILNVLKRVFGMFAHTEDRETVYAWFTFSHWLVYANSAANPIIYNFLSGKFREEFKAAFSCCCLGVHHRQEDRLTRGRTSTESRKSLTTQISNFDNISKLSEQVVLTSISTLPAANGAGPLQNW
Assay: Human orexin 2 receptor radioligand binding (competitive, [3H]-EMPA, HEK293 cell preparations)
Details: human orexin 2 receptor, [3H]-EMPA competition binding; read-out: hOX2 Ki (nm)
I'd appreciate it if you could supply Ki values for the items below.
Give just the numeric value; µM need not be written.

[Q] What Ki value was documented for this compound, Cc1ccc(-c2ncccn2)c(C(=O)N2C3CCC2C(COc2ncc(F)cn2)C3)n1 (racemic) [Example 175] ?
[A] 4

[Q] Again, but for O=C(c1cccc(F)c1-c1ccncc1)N1[C@@H]2CC[C@H]1[C@H](Nc1cnc(C(F)(F)F)cn1)C2 [Example 268]
[A] 3.7

[Q] Again, but for O=C(c1cccc(F)c1-n1nccn1)N1C2CCC1C(COc1ccccn1)C2 (racemic) [Example 129]
[A] 1

###

Target: human orexin 2 receptor (Homo sapiens (Human))
Assay: Human orexin 2 receptor radioligand binding (competitive, [3H]-EMPA, HEK293 cell preparations)
Conditions: human orexin 2 receptor, [3H]-EMPA competition binding; read-out: hOX2 Ki (nm)
Measured Attribute: pKi
The quantity pKi is defined as the negative base-10 logarithm of the molar concentration.

[Q] Hello, I am looking for reported pKi with human orexin 2 receptor (Homo sapiens (Human)) for O=C(c1ccccc1-n1nccn1)N1C2CCC1C(COc1ccc(F)cn1)C2 (racemic) . Could you help?
[A] 7.30

[Q] Again, but for Cc1cnc(C(=O)N2C3CCC2C(COc2ccccn2)C3)c(-n2nccn2)c1 (racemic)
[A] 5.43

[Q] Again, but for COc1c(F)cccc1C(=O)N1C2CCC1C(COc1ccc(F)cn1)C2 (racemic) [Example 173]
[A] 5.52

[Q] Again, but for O=C(c1cc(F)ccc1-n1nccn1)N1C2CCC1C(CNc1cnc3ccccc3n1)C2 (racemic)
[A] 6.00

[Q] Again, but for O=C(c1cccc(F)c1-c1ncccn1)N1C2CCC1C(COc1ccc(F)cn1)C2 (racemic)
[A] 6.45

[Q] Again, but for O=C(c1cccc(F)c1-c1ncccn1)N1[C@@H]2CC[C@H]1[C@H](Nc1ncc(C(F)(F)F)cn1)C2
[A] 5.64

[Q] Again, but for Cc1noc(-c2ccccc2C(=O)N2C3CCC2C(COc2nccc(C(F)(F)F)n2)C3)n1 (racemic)
[A] 6.02

[Q] Again, but for COc1c(F)cccc1C(=O)N1C2CCC1C(Nc1ccc(Br)cn1)C2 (racemic)
[A] 5.17

[Q] Again, but for O=C(c1cccc(F)c1-n1nccn1)N1C2CCC1C(COc1ccc(F)cn1)C2 (racemic)
[A] 6.61

[Q] Again, but for O=C(c1cccc(F)c1-c1cnccn1)N1[C@@H]2CC[C@H]1[C@H](Nc1cnc(C(F)(F)F)cn1)C2
[A] 6.73

[Q] Again, but for Cc1cccc(OCC2CC3CCC2N3C(=O)c2cccc(F)c2-n2nccn2)n1 (racemic)
[A] 6.52

[Q] Again, but for Cc1ccc(OCC2CC3CCC2N3C(=O)c2cc(C)ccc2-n2nccn2)nc1 (racemic)
[A] 7.36

[Q] Again, but for O=C(c1cccc(F)c1-n1nccn1)N1C2CCC1C(COc1cccc(C(F)(F)F)n1)C2 (racemic)
[A] 6.71

[Q] Again, but for Cc1ccc(-n2nccn2)c(C(=O)N2C3CCC2C(COc2ccc(C(F)(F)F)cn2)C3)c1 (racemic)
[A] 7.15

[Q] Again, but for Cc1ccc(N(C)C)c(C(=O)N2C3CCC2C(COc2ccccn2)C3)n1 (racemic)
[A] 5.10

[Q] Again, but for CCOc1ccc2cccnc2c1C(=O)N1C2CCC1C(COc1ccccn1)C2 (racemic)
[A] 6.66

[Q] Again, but for O=C(c1cccc(F)c1-c1cccnn1)N1[C@@H]2CC[C@H]1[C@H](Nc1cnc(C(F)(F)F)cn1)C2
[A] 5.38

###

Target: rat orexin 1 receptor (Rattus norvegicus, UniProt P56718)
Test: Rat orexin 1 receptor radioligand binding (competitive, [3H]-SB674042, HEK293 cell preparations)
Details: rOX1 Ki (nm)
I'd appreciate it if you could supply pKi values for the items below.
The quantity pKi is defined as the negative base-10 logarithm of the molar concentration.

[Q] What pKi value was documented for this compound, Cc1cnc(C(=O)N2C3CCC2C(Nc2ccc(C(F)(F)F)cn2)C3)c(-n2nccn2)c1 (racemic) ?
[A] 6.53

[Q] Again, but for Cc1ccc(-c2ncccn2)c(C(=O)N2C3CCC2C(Nc2ccc(C(F)(F)F)cn2)C3)n1 (racemic)
[A] 7.24

[Q] Again, but for CCOc1ncc2ccccc2c1C(=O)N1C2CCC1C(COc1ccccn1)C2 (racemic)
[A] 7.77

[Q] Again, but for Cc1ccc(-n2nccn2)c(C(=O)N2C3CCC2C(COc2ccncn2)C3)n1 (racemic)
[A] 5.55

[Q] Again, but for Cc1ccc(-n2nccn2)c(C(=O)N2C3CCC2C(COc2cccnc2)C3)n1 (racemic)
[A] 7.06

[Q] Again, but for Cc1ccc(-c2ncccn2)c(C(=O)N2C3CCC2C(Nc2cnc4ccccc4n2)C3)n1 (racemic)
[A] 7.59

[Q] Again, but for Cc1cc(-c2ccc(C)nc2C(=O)N2C3CCC2C(COc2ncc(F)cn2)C3)on1 (racemic)
[A] 5.82

[Q] Again, but for COc1ccc(-n2nccn2)c(C(=O)N2C3CCC2C(COc2ccc(F)cn2)C3)c1 (racemic)
[A] 7.70

###

Molecular target: human orexin 2 receptor (Homo sapiens (Human), UniProt O43614)
Assay: Human orexin 2 receptor radioligand binding (competitive, [3H]-EMPA, HEK293 cell preparations)
Conditions: human orexin 2 receptor, [3H]-EMPA competition binding; read-out: hOX2 Ki (nm)
I'd appreciate it if you could supply Ki values for the items below.

[Q] What Ki value was documented for this compound, Cc1ccc(-n2nccn2)c(C(=O)N2C3CCC2C(COc2cccc(C(F)(F)F)n2)C3)c1 (racemic) [Example 16] ?
[A] 42 nM

[Q] Again, but for COc1ccc(C(=O)N2C3CCC2C(COc2ccc(F)cn2)C3)c(-n2nccn2)c1 (racemic) [Example 119]
[A] 1300 nM

[Q] Again, but for Cc1ccc(-n2nccn2)c(C(=O)N2C3CCC2C(Nc2ncc(C(F)(F)F)cn2)C3)n1 (racemic) [Example 228]
[A] > 10000 nM

[Q] Again, but for Cc1ccc(-n2nccn2)c(C(=O)N2C3CCC2C(COc2cc(C)nc(C(F)(F)F)n2)C3)c1 (racemic) [Example 180]
[A] 32 nM

[Q] Again, but for O=C(c1ncccc1-n1nccn1)N1C2CCC1C(COc1ccccn1)C2 (racemic) [Example 91]
[A] 3300 nM

[Q] Again, but for Cc1cccc(C(=O)N2[C@@H]3CC[C@H]2[C@H](Nc2ncc(C(F)(F)F)cn2)C3)c1-c1ccccn1 [Example 293]
[A] 1100 nM

[Q] Again, but for Cc1cnc(C(=O)N2C3CCC2C(Nc2ccc(C(F)(F)F)cn2)C3)c(-n2nccn2)c1 (racemic) [Example 188]
[A] 1500 nM

[Q] Again, but for CCOc1ccc(C)nc1C(=O)N1C2CCC1C(Nc1cnc3ccccc3n1)C2 (single isomer, unassigned) [Example 229]
[A] > 10000 nM

[Q] Again, but for CCOc1ccc(C)nc1C(=O)N1[C@@H]2CC[C@H]1[C@H](Nc1cnc(C(F)(F)F)cn1)C2 [Example 287]
[A] 767 nM

[Q] Again, but for Cc1cc(C)nc(NC2CC3CCC2N3C(=O)c2nc(C)ccc2-n2nccn2)n1 (racemic) [Example 201]
[A] 1100 nM

[Q] Again, but for COc1cccc(-c2c(C)cnn2C)c1C(=O)N1[C@@H]2CC[C@H]1[C@H](Nc1cnc(C(F)(F)F)cn1)C2 [Example 292]
[A] > 10000 nM

[Q] Again, but for Cc1cnc(N[C@@H]2C[C@H]3CC[C@@H]2N3C(=O)c2cccc(F)c2-c2ncccn2)cn1 [Example 278]
[A] 934 nM

[Q] Again, but for Cc1cccc(-n2nccn2)c1C(=O)N1C2CCC1C(COc1ccc(F)cn1)C2 (racemic) [Example 110]
[A] 94 nM

[Q] Again, but for O=C(c1ncccc1-n1nccn1)N1[C@@H]2CC[C@H]1[C@H](Nc1cnc(C(F)(F)F)cn1)C2 [Example 288]
[A] 1900 nM

[Q] Again, but for CCOc1nccc(C)c1C(=O)N1C2CCC1C(COc1ccccn1)C2 (racemic) [Example 155]
[A] 3600 nM

[Q] Again, but for CCOc1ccc(C)nc1C(=O)N1C2CCC1C(Nc1cnc3ccccc3n1)C2 (single isomer, unassigned) [Example 207]
[A] 64 nM

[Q] Again, but for O=C(c1cccc(F)c1-c1ccnnc1)N1[C@@H]2CC[C@H]1[C@H](Nc1cnc(C(F)(F)F)cn1)C2 [Example 264]
[A] > 10000 nM

[Q] Again, but for O=C(c1cc(F)ccc1-c1ncccn1)N1[C@@H]2CC[C@H]1[C@H](COc1ccccn1)C2 [Example 1]
[A] 276 nM

[Q] Again, but for Cc1cccc(C(=O)N2[C@@H]3CC[C@H]2[C@H](Nc2ncc(C(F)(F)F)cn2)C3)c1-n1nccn1 [Example 272]
[A] 742 nM
